Test system: THP-1 macrophages
assayNotes: Effect of compounds on host cell viability (MTT)
Type: cell-based
conditionsUsed: read-out: 24h LC50; THP1 macrophages, 24-hour incubation, MTT assay (Supplemental Table 2)
CC50 overview

Below: 3 compounds and their reported CC50.
| compound | assaySystem | CC50 |
| --- | --- | --- |
| CC(C)(C)OC(=O)NCC(=O)Nc1ccc(-n2cc(C(F)(F)F)nc2-c2ccc(-c3ccc(C(F)(F)F)cc3)cc2)cc1 [Compound 77] | THP-1 macrophages | > 50 µM |
| CC(C)c1cc(C(F)(F)F)nn1-c1ccc(NC2CCN(C(=O)OC(C)(C)C)C2)cc1 (centres unmarked) [Compound 286] | THP-1 macrophages | > 50 µM |
| CC(C)(C)OC(=O)N1CCN(c2ccc(-n3nc(C(F)(F)F)cc3-c3ccc(C#CC(F)(F)F)cc3)cc2)CC1 [Compound 47] | THP-1 macrophages | > 50 µM |

THP-1 macrophages data for O=C(CCCCBr)N1CCC(Nc2ccc(-n3nc(C(F)(F)F)cc3-c3ccc(-c4ccc(C(F)(F)F)cc4)cc3)cc2)CC1 [Compound 117] ; its CC50: > 50 µM

THP-1 macrophages data for CC(C)(C)OC(=O)N1CC(Nc2ccc(-n3nc(C(F)(F)F)cc3-c3ccc(-c4ccc(C(F)(F)F)cc4)cc3)cc2)C1 [Compound 56] ; its CC50: > 50 µM

THP-1 macrophages data for FC(F)(F)c1cc(C2CCCCC2)n(-c2ccc(N3CCC(OCc4ccccc4)C3)cc2)n1 (centres unmarked) [Compound 412] ; its CC50: > 50 µM
